Every entry's value here was drawn from patent US20260258115A1.

Biological target: RSV postfusion F (postF), F deltaFP (Respiratory Syncytial Virus)
Assay: BLI, IgG on anti-human IgG sensor, 100 nM antigen
METRIC: Kd (nM)
Please give a number only; it is taken to be in nM.

Requested read-out: Kd. Entry: ADI-41185 (antibody, V domains shown) VH: QVQLQQWGAGLLKPSETLSLTCAVYGGSFSSYYYSWIRQPPGKGLEWIGEINQSGSTNYNPSLKSRVTISVDTSKNEFSLKLSSVTAADTAVYYCARIVREFNTRWYDYYYMDVWGKGTTVTVSS VL: DIRVTQSPATLSLSPGERATLSCRTSQSISSSYLAWYQQKFGQAPRLLIYGASSRATGIPDRFSGSGSGTDFTLTISRLEPEDFAVYYCQQYGISPPMYTFGQGTKVEIK
0.809

Would you mind doing ADI-41228 (antibody, V domains shown) VH: EVQLLESGPGLVKPSETLSLTCTVSGGSISSYQWNWIRQPPGKGLEWLGYVYYSGSTNYNPSLKSRVTLSVDTSKNQFSLKLSSVTAADTAVYYCARDRRDGSFVFDYWGQGTLVTVSS VL: QSVLIQPASVSGSPGQSITISCTGTSSDVGGYNYVSWYQQHPGKAPKLMIYDVSNRPSGISNRFSGSKSGNTASLTISGLQAEDEADYYCSSYTSSTTLVFGTGTKVTVL as well?
0.618

Would you mind doing ADI-41212 (antibody, V domains shown) VH: EVQLLESGAEVKKPGASVKVSCKASGYTFTDYYIHWVRQAPGQGLEWMGRINPKNGDAIYAQNFQGRVTMTRDTSISTAYMEVSRLTSDDTAVYYCARDQMWLVLDYWGQGTLVTVSS VL: QSALTQPASVSGSPGQSITISCTGTSSDVGGYDYVSWYQQHPGKAPKLMIHDVTNRPSGISHRFSGSKSGNTASLTISGLQAGDEADYYCSSYTRSNTKVFGTGTKVTVL as well?
0.4

Would you mind doing ADI-41181 (antibody, V domains shown) VH: QVQLVQSGAEVKKPGSSVKVSCKASGGSFSSYTLNWVRQAPGQGLEWMGRFVPIVGIANYAQKFQGRVTITADKSTSTVYMELSSLRSEDTAVYYCATAPTAYCSGDCYSLFDPWGQGTLVTVSS VL: QSVLIQPASVSGSPGQSITISCTGISSDVGSYNLVSWYQQHPGKAPKLIIYEVNKRPSGVSNRFSGSKSGNTASLTISGLQAEDEADYYCCSYAVSRTSLYVFGTGTKVTVL as well?
0.936

Would you mind doing ADI-41159 (antibody, V domains shown) VH: EVQLVESGAEVKKPGESLKISCKGSGYSFTTYWIGWVRQMPGKGLEWMGIMYPGDSQTRYSPSFQGQVTISADKSISTAYLQWSSLKASDTAMYYCARGGYCSGGSCYRGLDYWGQGTLVTVSS VL: EIVMTQSPSSLSASVGDRVTITCRASQSISSFLNWYQQKPGKAPNLLIYAASSLLSGVPSRFSGSGSGTDFTLTISSLQPEDFATYYCQQSHSTPQTFGQGTKLEIK as well?
9.87

Would you mind doing ADI-41153 (antibody, V domains shown) VH: EVQLVESGGGLVKPGGSLRLSCAASQFTFSTYDMSWVRQAPGKGLEWVASISSGSTYIYYADSVKGRFTISRDNAKHSLFLQMKSLRAEDTALYYCARQVLYDRGGYYLYYFDHWGQGTLVTVSS VL: DIQVTQSPSSLSASVGDRVTITCRASQTIASYLNWYQQKPGKAPNLLIYAASNLQSGVPSRFSGSGSGTEFTLTINTLQPEDFATYYCQQSYNFPYTFGQGTKVEIK as well?
0.445

Would you mind doing ADI-41218 (antibody, V domains shown) VH: QVQLVQSGAEVKKPGASVKVSCKASGYTFISDGISWVRQAPGQGLEWMGWINPHNENTNYAQKFQGRVTMTTDTSTSTAYLELRGLRSDDTAVYYCARDPYHWSYLDYWGQGTLVTVSS VL: QSVVTQPPSVSGAPGQRVTITCTGSSSNIGANSDVHWYQQIPGTAPKLLIFGNSNRPSGVPDRFSGSKSGTSASLAITGLQAEDEADYYCQSYDRSLSGSRVFGGGTRLTVL as well?
0.729

Would you mind doing ADI-41175 (antibody, V domains shown) VH: EVQLLESGGGVVQPGRSLRLSCATSGFTFSSYGMHWVRQAPGKGLEWVAVIYYEGSNKYYGDSVKGRFTISRDNSKSTLYLQMNRLRAEDTAVYYCARRPAGGFDYWGPGTLVTVSS VL: EIVMTQSPLSLPVTPGEPASISCRSSQNLLNSNGYNYLDWYLQKPGQSPQLLIYLGSNRASGVPDRFSGSGSGTDFTLKISRVEAEDVGVYYCMQALQTPYTFGQGTKLEIK as well?
1.07

Would you mind doing ADI-41231 (antibody, V domains shown) VH: QVQLVQSGAEVKKPGESLKISCKGSGYSFTNNWVGWVRQMPGKGLEWMGIIFPGDSDTRYSPSFRGQVTISVDTSINTAFLQWNSLGASDTAMYYCAMTDYNYSFKSWGQGTLVTVSS VL: NFMLTQPHSVSESPGKTITISCTRSSGNIGNNYVQWYQQRPGSSFTTVIYEDYQRPSGVPDRFSGSIDSSSNSATLTISGLKTEDEADYYCQSYDSSNPYVFGTGTKVTVL as well?
0.426

Would you mind doing ADI-41176 (antibody, V domains shown) VH: EVQLVESGPGLVKPSETLSLTCTVSGGSIGNDYYYWGWIRQPPGKGLEWIGNISYSGSTYYNPSLKSRVTISVGTSKNQFSLKLTSVSAADTAVYHCVGRTFWRDCSSTSCYEYYFDYWGQGTLVTVSS VL: ETTLTQSPTSLSASVGDRVTITCRASQGISNYLAWYQQKPGKVPKVLIYAASTLQSGVSSRFSGSGSGTGFTLTISNLQPEDVATYYCQNYNSAPWTFGQGTKVEIK as well?
4.07
